- experiment-description: In vivo formation of NAFB1 and NAHFB1 in rat kidney and liver (HPLC-ESI-MS/MS)
- Set-up: unit not given here
- test-conditions: Kidney; treatment FB1 0,5 mg/kg BW ip, 5 days
measurement-label: N-acyl-derivative in tissue sample, analysis a

## Task Which N-acyl-derivative in tissue sample, analysis a reading was recorded for the compound CCCCCCCCCCCCCCCCCCCC(=O)N[C@@H](C)[C@@H](O)C[C@H](O)CCCC[C@@H](O)C[C@H](C)C[C@H](O)[C@H](O)[C@H](C)CCCC ?
## Result 0,0

## Task Another compound to check: CCCCCCCCCCCCCCCCCC(=O)NC(C)C(O)CC(O)CCCCC(O)CC(C)CC(OC(=O)CC(CC(=O)O)C(=O)O)C(OC(=O)CC(CC(=O)O)C(=O)O)C(C)CCCC (stereo not shown)
## Result 2,5

## Task Another compound to check: CCCCCCCCC=CCCCCCCCCCCCCCC(=O)NC(C)C(O)CC(O)CCCCC(O)CC(C)CC(OC(=O)CC(CC(=O)O)C(=O)O)C(OC(=O)CC(CC(=O)O)C(=O)O)C(C)CCCC (stereo not shown)
## Result 3,6

## Task Another compound to check: CCCCCCCCCCCCCCCCCC(=O)N[C@@H](C)[C@@H](O)C[C@H](O)CCCC[C@@H](O)C[C@H](C)C[C@H](O)[C@H](O)[C@H](C)CCCC
## Result 0,1

====

- experiment-description: In vivo formation of NAFB1 and NAHFB1 in rat kidney and liver (HPLC-ESI-MS/MS)
- Design: unit not given here
- test-conditions: Kidney; treatment FB1 2 mg/kg BW ip, 5 days
Would you kindly list N-acyl-derivative in tissue sample, analysis a for each of these molecules?

## Task Which N-acyl-derivative in tissue sample, analysis a reading was recorded for the molecule CCCCCCCCCCCCCCCCCCCCCC(=O)N[C@@H](C)[C@@H](O)C[C@H](O)CCCC[C@@H](O)C[C@H](C)C[C@H](O)[C@H](O)[C@H](C)CCCC [HFB1C22:0] ?
## Result 0,0

## Task Another molecule to check: CCCCCCCCCCCCCCCCCC(=O)N[C@@H](C)[C@@H](O)C[C@H](O)CCCC[C@@H](O)C[C@H](C)C[C@H](O)[C@H](O)[C@H](C)CCCC [HFB1C18:0]
## Result 0,0

## Task Another molecule to check: CCCCCCCCCCCCCCCC(=O)N[C@@H](C)[C@@H](O)C[C@H](O)CCCC[C@@H](O)C[C@H](C)C[C@H](O)[C@H](O)[C@H](C)CCCC [HFB1C16:0]
## Result 0,3

## Task Another molecule to check: CCCCCCCCCCCCCCCCCCCCCCCC(=O)NC(C)C(O)CC(O)CCCCC(O)CC(C)CC(OC(=O)CC(CC(=O)O)C(=O)O)C(OC(=O)CC(CC(=O)O)C(=O)O)C(C)CCCC (stereo not shown) [FB1C24:0]
## Result 5,0

====

Would you kindly list N-acyl-derivative in tissue sample, analysis b for each of these compounds?
- experiment-description: In vivo formation of NAFB1 and NAHFB1 in rat kidney and liver (HPLC-ESI-MS/MS)
- Set-up: unit not given here
- test-conditions: Kidney; treatment FB1 1 mg/kg BW ip, 5 days

## Task Which N-acyl-derivative in tissue sample, analysis b reading was recorded for the compound CCCCCCCCCCCCCCCCCCCCCCCC(=O)N[C@@H](C)[C@@H](O)C[C@H](O)CCCC[C@@H](O)C[C@H](C)C[C@H](O)[C@H](O)[C@H](C)CCCC [HFB1C24:0] ?
## Result 0,0

## Task Another compound to check: CCCCCCCCCCCCCCCCCCCC(=O)NC(C)C(O)CC(O)CCCCC(O)CC(C)CC(OC(=O)CC(CC(=O)O)C(=O)O)C(OC(=O)CC(CC(=O)O)C(=O)O)C(C)CCCC (stereo not drawn) [FB1C20:0]
## Result 0,0

## Task Another compound to check: CCCCCCCC/C=C\CCCCCCCCCCCCCC(=O)N[C@@H](C)[C@@H](O)C[C@H](O)CCCC[C@@H](O)C[C@H](C)C[C@H](O)[C@H](O)[C@H](C)CCCC [HFB1C24:1]
## Result 0,0

## Task Another compound to check: CCCCCCCCCCCCCCCC(=O)N[C@@H](C)[C@@H](O)C[C@H](O)CCCC[C@@H](O)C[C@H](C)C[C@H](O)[C@H](O)[C@H](C)CCCC [HFB1C16:0]
## Result 0,1

## Task Another compound to check: CCCCCCCCCCCCCCCCCCCCCC(=O)N[C@@H](C)[C@@H](O)C[C@H](O)CCCC[C@@H](O)C[C@H](C)C[C@H](O)[C@H](O)[C@H](C)CCCC [HFB1C22:0]
## Result 0,0

## Task Another compound to check: CCCCCCCCCCCCCCCCCC(=O)N[C@@H](C)[C@@H](O)C[C@H](O)CCCC[C@@H](O)C[C@H](C)C[C@H](O)[C@H](O)[C@H](C)CCCC [HFB1C18:0]
## Result 0,0

====

- experiment-description: In vivo formation of NAFB1 and NAHFB1 in rat kidney and liver (HPLC-ESI-MS/MS)
- Set-up: unit not given here
- test-conditions: Liver; treatment FB1 1 mg/kg BW ip, 5 days
Would you kindly list N-acyl-derivative in tissue sample, analysis a for each of these compounds?

## Task Which N-acyl-derivative in tissue sample, analysis a reading was recorded for the compound CCCCCCCC/C=C\CCCCCCCCCCCCCC(=O)N[C@@H](C)[C@@H](O)C[C@H](O)CCCC[C@@H](O)C[C@H](C)C[C@H](O)[C@H](O)[C@H](C)CCCC [HFB1C24:1] ?
## Result 0,0

## Task Another compound to check: CCCCCCCCCCCCCCCCCCCC(=O)NC(C)C(O)CC(O)CCCCC(O)CC(C)CC(OC(=O)CC(CC(=O)O)C(=O)O)C(OC(=O)CC(CC(=O)O)C(=O)O)C(C)CCCC (stereo not shown) [FB1C20:0]
## Result 0,0

## Task Another compound to check: CCCCCCCCCCCCCCCCCCCCCC(=O)N[C@@H](C)[C@@H](O)C[C@H](O)CCCC[C@@H](O)C[C@H](C)C[C@H](O)[C@H](O)[C@H](C)CCCC [HFB1C22:0]
## Result 0,0

## Task Another compound to check: CCCCCCCCC=CCCCCCCCCCCCCCC(=O)NC(C)C(O)CC(O)CCCCC(O)CC(C)CC(OC(=O)CC(CC(=O)O)C(=O)O)C(OC(=O)CC(CC(=O)O)C(=O)O)C(C)CCCC (stereo not shown) [FB1C24:1]
## Result 3,4

## Task Another compound to check: CCCCCCCCCCCCCCCCCCCC(=O)N[C@@H](C)[C@@H](O)C[C@H](O)CCCC[C@@H](O)C[C@H](C)C[C@H](O)[C@H](O)[C@H](C)CCCC [HFB1C20:0]
## Result 0,2

## Task Another compound to check: CCCCCCCCCCCCCCCCCC(=O)N[C@@H](C)[C@@H](O)C[C@H](O)CCCC[C@@H](O)C[C@H](C)C[C@H](O)[C@H](O)[C@H](C)CCCC [HFB1C18:0]
## Result 0,0

## Task Another compound to check: CCCCCCCCCCCCCCCC(=O)N[C@@H](C)[C@@H](O)C[C@H](O)CCCC[C@@H](O)C[C@H](C)C[C@H](O)[C@H](O)[C@H](C)CCCC [HFB1C16:0]
## Result 0,0

====

Would you kindly list N-acyl-derivative in tissue sample, analysis a for each of these compounds?
- experiment-description: In vivo formation of NAFB1 and NAHFB1 in rat kidney and liver (HPLC-ESI-MS/MS)
- Design: unit not given here
- test-conditions: Kidney; treatment FB1 0,5 mg/kg BW ip, 5 days

## Task Which N-acyl-derivative in tissue sample, analysis a reading was recorded for the compound CCCCCCCCCCCCCCCCCCCC(=O)NC(C)C(O)CC(O)CCCCC(O)CC(C)CC(OC(=O)CC(CC(=O)O)C(=O)O)C(OC(=O)CC(CC(=O)O)C(=O)O)C(C)CCCC (stereo not drawn) ?
## Result 0,2

## Task Another compound to check: CCCCCCCC/C=C\CCCCCCCCCCCCCC(=O)N[C@@H](C)[C@@H](O)C[C@H](O)CCCC[C@@H](O)C[C@H](C)C[C@H](O)[C@H](O)[C@H](C)CCCC
## Result 0,0

## Task Another compound to check: CCCCCCCCCCCCCCCCCCCCCC(=O)N[C@@H](C)[C@@H](O)C[C@H](O)CCCC[C@@H](O)C[C@H](C)C[C@H](O)[C@H](O)[C@H](C)CCCC
## Result 0,0

====

- experiment-description: In vivo formation of NAFB1 and NAHFB1 in rat kidney and liver (HPLC-ESI-MS/MS)
- Parameters: unit not given here
- test-conditions: Kidney; treatment FB1 0,5 mg/kg BW ip, 5 days
measurement-label: N-acyl-derivative in tissue sample, analysis b

## Task Which N-acyl-derivative in tissue sample, analysis b reading was recorded for the molecule CCCCCCCCC=CCCCCCCCCCCCCCC(=O)NC(C)C(O)CC(O)CCCCC(O)CC(C)CC(OC(=O)CC(CC(=O)O)C(=O)O)C(OC(=O)CC(CC(=O)O)C(=O)O)C(C)CCCC (stereo not shown) ?
## Result 3,5

## Task Another molecule to check: CCCCCCCCCCCCCCCC(=O)NC(C)C(O)CC(O)CCCCC(O)CC(C)CC(OC(=O)CC(CC(=O)O)C(=O)O)C(OC(=O)CC(CC(=O)O)C(=O)O)C(C)CCCC (stereo not shown)
## Result 9,1

## Task Another molecule to check: CCCCCCCCCCCCCCCCCC(=O)N[C@@H](C)[C@@H](O)C[C@H](O)CCCC[C@@H](O)C[C@H](C)C[C@H](O)[C@H](O)[C@H](C)CCCC
## Result 0,2

## Task Another molecule to check: CCCCCCCCCCCCCCCCCCCCCC(=O)NC(C)C(O)CC(O)CCCCC(O)CC(C)CC(OC(=O)CC(CC(=O)O)C(=O)O)C(OC(=O)CC(CC(=O)O)C(=O)O)C(C)CCCC (stereo not shown)
## Result 0,7

## Task Another molecule to check: CCCCCCCCCCCCCCCCCCCC(=O)NC(C)C(O)CC(O)CCCCC(O)CC(C)CC(OC(=O)CC(CC(=O)O)C(=O)O)C(OC(=O)CC(CC(=O)O)C(=O)O)C(C)CCCC (stereo not shown)
## Result 0,5

## Task Another molecule to check: CCCCCCCCCCCCCCCCCCCC(=O)N[C@@H](C)[C@@H](O)C[C@H](O)CCCC[C@@H](O)C[C@H](C)C[C@H](O)[C@H](O)[C@H](C)CCCC
## Result 0,0

## Task Another molecule to check: CCCCCCCCCCCCCCCCCC(=O)NC(C)C(O)CC(O)CCCCC(O)CC(C)CC(OC(=O)CC(CC(=O)O)C(=O)O)C(OC(=O)CC(CC(=O)O)C(=O)O)C(C)CCCC (stereo not shown)
## Result 2,9

## Task Another molecule to check: CCCCCCCCCCCCCCCCCCCCCC(=O)N[C@@H](C)[C@@H](O)C[C@H](O)CCCC[C@@H](O)C[C@H](C)C[C@H](O)[C@H](O)[C@H](C)CCCC
## Result 0,0

## Task Another molecule to check: CCCCCCCC/C=C\CCCCCCCCCCCCCC(=O)N[C@@H](C)[C@@H](O)C[C@H](O)CCCC[C@@H](O)C[C@H](C)C[C@H](O)[C@H](O)[C@H](C)CCCC
## Result 0,0

## Task Another molecule to check: CCCCCCCCCCCCCCCC(=O)N[C@@H](C)[C@@H](O)C[C@H](O)CCCC[C@@H](O)C[C@H](C)C[C@H](O)[C@H](O)[C@H](C)CCCC
## Result 0,2

FYI, the data here is from paper PMC4298654.
